Test system: MDA-MB-468 breast
Test: NCI tumour cell line growth inhibition, 48 h; in the data active = GI50 below about 0.43 µM; inactive = the rest
Classes used: active, inactive

1. ClC1=C(Cl)C(Cl)=C(Cl)C1=Cc1ccccc1    inactive
2. CCN(CC)c1ccc2c(cc1=O)[C@@H](NC(C)=O)CCc1cc(OC)c(OC)c(OC)c1-2    active
3. CC/C=C\C/C=C\C[C@H]1C/C=C2/C(=O)C=C[C@@H]2C/C=C\CCC(=O)O1    inactive
4. c1ccc(CSc2nnc3c4c5c(sc4nc(-c4cccnc4)n23)CCCCCC5)cc1    inactive
5. Nc1c(C(=O)Nc2ccccn2)sc2nc3c(cc12)CCCCC3    inactive
6. Oc1ccc(CCl)c2cccnc12    inactive
7. O=C(CNc1c(Cl)cccc1Cl)Nc1ccc(-c2nc3ccccc3s2)cc1    active
8. O=C(/C=C/Nc1ccc(Cl)cc1)c1ccc2c(c1)Nc1ccccc1S2    inactive
9. COc1cc(-c2nn(-c3ccc(NC(=O)NCCCNC(=O)c4ccccc4)cc3)cc2-c2ccncc2)ccc1Cl    active

* * *

Parameter log10(TGI): see the listing below.
Test system: MDA-MB-468 breast
Test: NCI tumour cell line growth inhibition, 48 h
test_readout: log10(TGI) (log10 of the value in µM)

1) COc1cnc2c(c1)C(=O)c1c-2n(CCCBr)c(=O)c2cc([N+](=O)[O-])ccc12    -0.02
2) O=C(NC1CCC(Br)CC1)C1CCCC(S(=O)(=O)NC2CCCCC2)C1 (stereo not given)    1.40
3) CC(C)=NNc1ncnc2c1ncn2C1OC(CO)C(O)C1O (stereo not given)    0.59
4) Cc1ccc(C)c(COc2cc(NC(=O)c3ccc4c(c3)OCO4)ccc2N(C)S(C)(=O)=O)c1    -0.36
5) O=C1Nc2ccccc2C1(c1c[nH]c2ccccc12)c1c[nH]c2ccccc12    0.66
6) O=C(/C=C/Nc1ccc(Cl)cc1)c1ccc2c(c1)Nc1ccccc1S2    1.15
7) c1ccc(CSc2nnc3c4c5c(sc4nc(-c4cccnc4)n23)CCCCCC5)cc1    0.61

* * *

Parameter TGI: see the listing below.
Tested on: MDA-MB-468 breast
Test: NCI tumour cell line growth inhibition, 48 h
test_readout: TGI

1) Nc1c(C(=O)Nc2ccccn2)sc2nc3c(cc12)CCCCC3    > 50 µM
2) Cn1cc(C2=C(c3c4n(c5ccccc35)CCN(C(N)=S)C4)C(=O)NC2=O)c2ccccc21    > 21 µM
3) N=C1S/C(=C/c2ccc(-c3ccc4c(c3)C(=O)NC4=O)o2)C(=O)N1c1ccc(Br)cc1    > 100 µM
